Hey, just so you know, these numbers are from paper PMC12649549.

System: S. aureus ATCC 25923
Applied Conditions: LYM broth, 2.5 mM MgCl2
Measure Name: MIC (µg/mL)
The reply should be a number in µg/mL, with the unit left off.

Ac-AKKKKWRKWLKWL-NH2 [Peptide W5K10]    3.13
Ac-LAKKKKWRKWLKW-NH2 [Peptide W5K09]    6.25
Ac-WLKWLAKKKKWRK-NH2 [Peptide W5K05]    3.13
Ac-KWLAKKKKWRKWL-NH2 [Peptide W5K07]    12.5
Ac-WLAKKKKWRKWLK-NH2 [Peptide W5K08]    6.25

Query: State the recorded MIC for this entry: Ac-KKKKWRKWLKWLA-NH2 [Peptide W5K11]
Result: 1.56

Query: MIC lookup needed for Ac-KKWRKWLKWLAKK-NH2 [W5K/A9W] , thanks.
Result: 3.13

Query: Consider the substance Ac-WRKWLKWLAKKKK-NH2 [Peptide W5K02] and give its measured MIC.
Result: 6.25

Query: Which measured MIC value corresponds to Ac-LKWLAKKKKWRKW-NH2 [Peptide W5K06] ?
Result: 6.25

Query: Looking for the measured MIC of Ac-KWLKWLAKKKKWR-NH2 [Peptide W5K04] , can you help?
Result: 6.25

Query: Name the recorded MIC for Ac-KKKWRKWLKWLAK-NH2 [Peptide W5K12] .
Result: 3.13

Query: Can you share its MIC? I mean this substance: Ac-RKWLKWLAKKKKW-NH2 [Peptide W5K03]
Result: 12.5

Query: // lookup MIC for Ac-KWRKWLKWLAKKK-NH2 [Peptide W5K01]
Result: 6.25

* * *

List of MIC values.
Tested on: S. aureus ATCC 33591
Applied Conditions: LYM broth, 100 mM NaCl; 16 h, 37 °C
The reply should be a number in mg/L, with the unit left off.

Query: Consider the substance shown here: Ac-WLAKKKKWRKWLK-NH2 [Peptide W5K08] What is its recorded MIC?
Result: 50

Query: Look up MIC for this substance: Ac-KKKWRKWLKWLAK-NH2 [Peptide W5K12]
Result: 3.13

Query: Recorded MIC of Ac-KKKKWRKWLKWLA-NH2 [Peptide W5K11] , please.
Result: 3.13

Query: I would be grateful if you could share the reported MIC for Ac-WLKWLAKKKKWRK-NH2 [Peptide W5K05] .
Result: 12.5

Query: I would be grateful if you could share the reported MIC for Ac-KWLKWLAKKKKWR-NH2 [Peptide W5K04] .
Result: 50

Query: Field request: MIC | item: Ac-KWRKWLKWLAKKK-NH2 [Peptide W5K01]
Result: 12.5

Query: Which measured MIC value corresponds to Ac-KWLAKKKKWRKWL-NH2 [Peptide W5K07] ?
Result: 50

Query: Please report the recorded MIC for Ac-LKWLAKKKKWRKW-NH2 [Peptide W5K06] .
Result: 50

* * *

Below, each entry is listed alongside its reported MIC.
Tested on: Pseudomonas aeruginosa Migula (ATCC 27853)
Applied Conditions: LYM broth, 0 mM NaCl; 16 h, 37 °C
# value in µg/mL; strip the unit string

Please review the following examples before continuing.
Ac-KKKWRKWLKWLAK-NH2 [Peptide W5K12]    1.56
Ac-WRKWLKWLAKKKK-NH2 [Peptide W5K02]    6.25
Ac-KWLAKKKKWRKWL-NH2 [Peptide W5K07]    6.25
Ac-WLAKKKKWRKWLK-NH2 [Peptide W5K08]    3.13

Query: Request the reported MIC associated with Ac-AKKKKWRKWLKWL-NH2 [Peptide W5K10]
Result: 3.13

Query: Can you share its MIC? I mean this substance: Ac-LAKKKKWRKWLKW-NH2 [Peptide W5K09]
Result: 3.13

Query: What value of MIC has been recorded for this entry: Ac-KKWRKWLKWLAKK-NH2 [W5K/A9W]
Result: 1.56

* * *

System: A. baumannii 14B0097 (Acinetobacter sp., BCRC number 14B0097)
Applied Conditions: LYM broth, 200 mM (NaCl); 16 h, 37 °C
Lab note - cut at 6 µg/mL for MIC: Criterion met if strictly below, Criterion not met if not.

Ac-RKWLKWLAKKKKW-NH2 [Peptide W5K03]    Criterion not met

Query: I wonder whether Ac-WLAKKKKWRKWLK-NH2 [Peptide W5K08] has MIC below 6 µg/mL. Can you tell?
Result: Criterion not met

* * *

Tested on: S. aureus ATCC 33593
Applied Conditions: LYM broth, pH 6.5
Measure Name: MIC (µg/mL)
Field: numeric (µg/mL). Do not append units.

Use these answered entries as a reference point.
Ac-WLAKKKKWRKWLK-NH2 [Peptide W5K08]    12.5
Ac-KWLAKKKKWRKWL-NH2 [Peptide W5K07]    12.5
Ac-KWLKWLAKKKKWR-NH2 [Peptide W5K04]    25
Ac-KKKKWRKWLKWLA-NH2 [Peptide W5K11]    1.56
Ac-KWRKWLKWLAKKK-NH2 [Peptide W5K01]    3.13

Note: attention shifts to another entry.
Query: Reported MIC for Ac-AKKKKWRKWLKWL-NH2 [Peptide W5K10] : what is it?
Result: 3.13

* * *

Catalogue of MIC readings, one per entry.
Tested on: S. aureus ATCC 33591
Applied Conditions: MH broth; 5 × 10^5 CFU/mL, 16 h, 37 °C; repeated three times

Consider the reported MIC for these substances:
Ac-KKKKWRKWLKWLA-NH2 [Peptide W5K11]    12.5 µg/mL
Ac-RKWLKWLAKKKKW-NH2 [Peptide W5K03]    >50 µg/mL

Query: Please report the recorded MIC for Ac-LAKKKKWRKWLKW-NH2 [Peptide W5K09] .
Result: >50 µg/mL

Query: Quick check: MIC of Ac-KKWRKWLKWLAKK-NH2 [W5K/A9W] ?
Result: 12.5 µg/mL

Query: MIC for Ac-LKWLAKKKKWRKW-NH2 [Peptide W5K06] ?
Result: >50 µg/mL

Query: Which MIC value is on record for Ac-KWLAKKKKWRKWL-NH2 [Peptide W5K07] ?
Result: >50 µg/mL

Query: # lookup: MIC of Ac-AKKKKWRKWLKWL-NH2 [Peptide W5K10]
Result: 12.5 µg/mL

* * *

System: A. baumannii 14B00100 (Acinetobacter sp., BCRC number 14B0100)
Applied Conditions: LYM broth, 100 mM NaCl; 16 h, 37 °C
Measure Name: log10 MIC (log10 of the value in µg/mL)
Values reflect log10 of reported MIC (µg/mL).

Please review the entries below; each comes with its answer.
Ac-LKWLAKKKKWRKW-NH2 [Peptide W5K06]    0.80
Ac-WLKWLAKKKKWRK-NH2 [Peptide W5K05]    0.50

Query: Query (substance): Ac-RKWLKWLAKKKKW-NH2 [Peptide W5K03] ; field requested: log10 MIC
Result: 0.50

Query: # log10 MIC lookup, item Ac-KKKKWRKWLKWLA-NH2 [Peptide W5K11]
Result: -0.11

Query: Name the reported log10 MIC value associated with the substance Ac-KKKWRKWLKWLAK-NH2 [Peptide W5K12]
Result: 0.19

Query: Looking for the measured log10 MIC of Ac-WRKWLKWLAKKKK-NH2 [Peptide W5K02] , can you help?
Result: 0.19

Query: Can you look up the measured log10 MIC of Ac-AKKKKWRKWLKWL-NH2 [Peptide W5K10] for me?
Result: 0.19

Query: Name the reported log10 MIC value associated with the substance Ac-LAKKKKWRKWLKW-NH2 [Peptide W5K09]
Result: 0.80

* * *

System: Escherichia coli (ATCC 25922)
Applied Conditions: LYM broth, 200 mM (NaCl); 16 h, 37 °C
Measure Name: MIC (µg/mL)
Numeric only. Scale: µg/mL

Query: Any idea what MIC was measured for Ac-KKKWRKWLKWLAK-NH2 [Peptide W5K12] ?
Result: 6.25

Query: Given the substance Ac-KKWRKWLKWLAKK-NH2 [W5K/A9W] , what is its reported MIC?
Result: 3.13

Query: MIC lookup needed for Ac-WLKWLAKKKKWRK-NH2 [Peptide W5K05] , thanks.
Result: 50

Query: Which MIC value is on record for Ac-WLAKKKKWRKWLK-NH2 [Peptide W5K08] ?
Result: 50

Query: What value of MIC has been reported for the following substance? Ac-AKKKKWRKWLKWL-NH2 [Peptide W5K10]
Result: 12.5

Query: Need MIC, item Ac-KKKKWRKWLKWLA-NH2 [Peptide W5K11]
Result: 3.13

Query: I am curious: what MIC value has been reported for Ac-LAKKKKWRKWLKW-NH2 [Peptide W5K09] ?
Result: 50

* * *

Each entry below lists one item and its recorded MIC value.
System: Escherichia coli (ATCC 25922)
Applied Conditions: LYM broth, 2.5 mM MgCl2
Respond numerically; units are µg/mL and should not be typed.

Ac-KWRKWLKWLAKKK-NH2 [Peptide W5K01]    12.5
Ac-KWLKWLAKKKKWR-NH2 [Peptide W5K04]    12.5

Query: Consider the substance Ac-LKWLAKKKKWRKW-NH2 [Peptide W5K06] and give its measured MIC.
Result: 6.25

Query: State the recorded MIC for this entry: Ac-KWLAKKKKWRKWL-NH2 [Peptide W5K07]
Result: 25
